- procedure.details: pKa test, spectrophotometric method (UV-metric pKa)
- Format: physicochemical
- study.conditions: MeOH cosolvent, Yasuda-Shedlovsky extrapolation; psKa out of effective pH range 2-12, reference only; read-out: pKa 1, UV-metric
observed.property: pKa

response.value for CC(=O)NCC1CCN(Cc2cc(Oc3ccc(N4CCN(CCC(=O)O)CC4)nc3)nc(-c3cc(Cl)cc(Cl)c3)c2)CC1 [Compound (I) freeform] (field: pKa) = 2.21

---

- procedure.details: Approximate solubility at RT
- Assay type: physicochemical
- study.conditions: MIBK, organic solvent or mixture, thermodynamic from solid, MIBK, RT; read-out: Solubility
observed.property: solubility

response.value for CC(=O)NCC1CCN(Cc2cc(Oc3ccc(N4CCN(CCC(=O)O)CC4)nc3)nc(-c3cc(Cl)cc(Cl)c3)c2)CC1 [Freeform Type A] (field: solubility) = < 2100 µg/mL

---

- procedure.details: Equilibrium solubility in pH buffers (pH 4.0-6.0) with pH adjustment
- Assay type: physicochemical
- study.conditions: 50 mM pH 4.0-6.0 buffers, pH 4, aqueous buffer, thermodynamic from solid, 50 mM pH 4.0-6.0 buffers with pH adjustment, RT; read-out: solubility in pH buffers (overall bound)
Counter-ions that a name gives are not always drawn.
observed.property: solubility at 24 h

response.value for CC(=O)NCC1CCN(Cc2cc(Oc3ccc(N4CCN(CCC(=O)O)CC4)nc3)nc(-c3cc(Cl)cc(Cl)c3)c2)CC1 [HCl salt Type F] (field: solubility at 24 h) = < 6800 µg/mL

---

- procedure.details: Equilibrium solubility in pH buffers (3.0-8.0), 20% captisol and water
- Type: physicochemical
- study.conditions: 20% Captisol (pH = 5.0, w/v), RT, 24 hrs
- Protocol: Additional solids were added into the sample to generate suspension if clear solution obtained. The suspension was equilibrated via stirring (1000 rpm). The suspension was centrifuged to obtain precipitate and supernatants. Solubility and pH were tested for the supernatants after filtration, and isolated precipitate was tested by XRPD. […]
Structures can show the parent of a compound that is named as a salt.
observed.property: S: solubility

[[record]]
compound = "CC(=O)NCC1CCN(Cc2cc(Oc3ccc(N4CCN(CCC(=O)O)CC4)nc3)nc(-c3cc(Cl)cc(Cl)c3)c2)CC1 [Sulfate Type B]"
observed_property = "S: solubility"
measured_result = ">44.5^1 mg/mL"


response.value for CC(=O)NCC1CCN(Cc2cc(Oc3ccc(N4CCN(CCC(=O)O)CC4)nc3)nc(-c3cc(Cl)cc(Cl)c3)c2)CC1 [HCl salt Type F] (field: S: solubility) = >48.0^1 mg/mL

response.value for CC(=O)NCC1CCN(Cc2cc(Oc3ccc(N4CCN(CCC(=O)O)CC4)nc3)nc(-c3cc(Cl)cc(Cl)c3)c2)CC1 [Fumarate Type A] (field: S: solubility) = 29.6 mg/mL

response.value for CC(=O)NCC1CCN(Cc2cc(Oc3ccc(N4CCN(CCC(=O)O)CC4)nc3)nc(-c3cc(Cl)cc(Cl)c3)c2)CC1 [Freeform Type A] (field: S: solubility) = 12.1 mg/mL

---

- procedure.details: Complexation stability constant test: solubility in HPβCD solutions
- Format: physicochemical
- study.conditions: 10% (w/w) HPβCD solution, pH 7.2, aqueous with cosolvent or surfactant or cyclodextrin, thermodynamic from solid; 10% HPβCD (81.56 mmol/L); read-out: API Solubility
observed.property: solubility at 24 h (µM)
Could you give me the number in µM? Just the number is fine.

response.value for CC(=O)NCC1CCN(Cc2cc(Oc3ccc(N4CCN(CCC(=O)O)CC4)nc3)nc(-c3cc(Cl)cc(Cl)c3)c2)CC1 [Freeform Type D] (field: solubility at 24 h) = 1470
